B1: CAMK2D (parent)
chain: IVRLHDSISEEGFHYLVFDLVTGG

# Variants of: B1
# ASSAY_OVERVIEW: protein stability index of a GFP-peptide fusion (GPS, HEK-293T) (PSI 1-6); higher = more stable;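 also: lentivirally expressed fusions sorted by FACS into six bins by GFP to DsRed ratio, PSI derived from sequencing read proportions per bin multiplied by bin number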
# STUDY_CONDITIONS: c terminus: a fixed tail appended
For each of the variants below, state its protein stability index.

Please report the measured protein stability index for `L4P` 2.39

Kindly indicate its recorded protein stability index. Item: `E10I` 3.06

Provide only the value of recorded protein stability index for `L20K` 2.41

Return value of protein stability index for input `F18S` , no commentary. 2

Please look at this variant and report its protein stability index: `S7Y` 3.15

Give recorded protein stability index. `V21L` 2.71

Quick one: give measured protein stability index for `L20I` 3.09

Supply reported protein stability index belonging to this variant: `R3E` 2.25

Query protein stability index for `L16A` 3.09

Give a short answer stating reported protein stability index for `V17A` . 2.78

Supply recorded protein stability index for `G23E` here. 3.03

Look up and report measured protein stability index for this entry: `R3Q` 2

Answer with the recorded protein stability index for the variant listed here: `I8Y` 3.84

State its protein stability index for this variant: `D19L` 2.47

For the variant `V17D` , report protein stability index. 1.46

Using known records, supply protein stability index for `F13H` 1.62

Please give the documented protein stability index of `L20T` 2.27

Given `S9L` , respond with its protein stability index. 4.27

Identify protein stability index associated with the variant `H5K` 4.72

Kindly indicate its recorded protein stability index. Item: `F13K` 1.43

Identify measured protein stability index associated with `S9Y` 3.58

Quote protein stability index reported for `L4Q` please. 1.69
